Assay: NCI Yeast Anticancer Drug Screen. Data for the sgs1 mgt1 strain (AID 161);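 further: 0% = growth of cultures given vehicle only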
Conditions: S. cerevisiae sgs1 mgt1 strain, at 50.0 µM
Protocol: Growth inhibition of yeast strains with defined genetic alterations is measured as a screen for potential anti-cancer activity. Selected strains with alterations in DNA damage repair or cell cycle control were exposed to compounds and growth inhibition was measured relative to vehicle treated controls. The strain used in this assay is sgs1 mgt1
Compounds without any hit were thinned out: in the full panel of roughly 79,000, 15% have a hit. Calls of active or inactive are those of the source. No stated cut-off is given here; in the data, active means growth inhibition above about 70%; inactive means the rest.
// one of active, inactive, no free text

molecule: Clc1nc(C(Cl)Cl)nc2ccccc12
label: inactive

molecule: CCCCc1c2c(nc3c1CCc1cc4c(nc1-3)-c1nc3c(c(CCCC)c1CC4)CCC/C3=C\c1ccccc1)/C(=C/c1ccccc1)CCC2
label: inactive

molecule: C/C(CC(O)(C(F)(F)Cl)C(F)(F)Cl)=N\Nc1ccccc1
label: inactive

molecule: C/C(=N\N=C(/C)c1ccc(C)cc1)c1ccc(C)cc1
label: inactive

molecule: COCCOCOCCCC#C[Si](C)(C)C
label: inactive

Input: What did the test return for O=C(Nc1ccc(Cl)c(Cl)c1)Nc1cccc2nsnc12 ?
Output: inactive

Input: What did the test return for CC(C)=CC(=O)n1nc2c(c1CC(C)C)C(=O)C(Nc1ccccc1)=CC2=O ?
Output: inactive

Input: What did the test return for Cc1cccc(-c2cc3cccnc3nc2NN=O)c1C ?
Output: active

Input: What did the test return for CC1=NN(C(=O)c2ccc(Cl)cc2)C(=O)/C1=C/c1ccccc1O ?
Output: inactive

Input: What did the test return for C=C(C)C1CC=C(C)[C@](O)(C2(O)C[C@H](C(=C)C)CC=C2C)C1 (stereo not given in full) ?
Output: inactive

Input: What did the test return for CCOC(=O)CNC(=O)C(Cc1cnc[nH]1)NC(=O)OCc1ccccc1 (stereo not given) ?
Output: inactive

Input: What did the test return for CN(C)C=Nc1cccc2cnccc12 ?
Output: inactive

Input: What did the test return for NC(=O)C(C1=CCCCC1)c1ccccc1 (stereo not given) ?
Output: inactive

Input: What did the test return for COC1OCC(OS(C)(=O)=O)C(OS(C)(=O)=O)C1OS(C)(=O)=O (stereo not given) ?
Output: inactive

Input: What did the test return for CC(C)(C)NCCCCCO ?
Output: inactive

---

experiment: NCI Yeast Anticancer Drug Screen. Data for the cln2 rad14 strain (AID 165);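 further: 0% = growth equal to vehicle treated cultures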; conditions: S. cerevisiae cln2 rad14 strain, at 50.0 µM, hits give high values
This is part of a sample that, as a whole, favours compounds with a hit. Of some 79,000 tested, about 15% had one in any assay. The source made the active and inactive calls. No stated cut-off is given here; in the data, active means growth inhibition above about 70%; inactive means the rest.
recorded metric: growth inhibition

molecule: CN(C)C=S
experimental result: -12.6% (inactive)

molecule: Cc1cccc(-c2c3ccccc3cc3c2ccc2ccccc23)c1
experimental result: -13.8% (inactive)

molecule: CCC(Cc1ccccc1)C1=NC(C)(C)CC(C)O1 (stereo not given)
experimental result: -20.6% (inactive)

molecule: COc1ccc2[nH]c(=O)c(C(C)=O)c(O)c2c1
experimental result: 1.6% (inactive)

molecule: CSc1nc(=O)n(CCC#N)nc1SC
experimental result: -7.65% (inactive)

For each of the molecules below, state growth inhibition.
1. Cc1c(C(=O)CC(=O)C(=O)Nc2c(C(C)C)cccc2C(C)C)[n+](=O)c2ccccc2n1[O-]
2. Cc1cccc(C(=O)O)n1.[Cu+2]
3. CCCCCCCCNC(C(=O)c1ccc(Cl)cc1)c1ccc(Cl)cc1 (stereo not given)
4. COC(=O)C1CCc2ccccc2C1=O (stereo not given)
5. CCCCC(=O)CCCCCCCCC(=O)CCCC
6. CCCCCCNC(=O)c1ccc(C(=O)NCCCCCC)cc1

Output:
40.5% (inactive)
-69.9% (inactive)
-18.3% (inactive)
6.4% (inactive)
-31.2% (inactive)
-19.5% (inactive)
